B1: Connector enhancer of kinase suppressor of ras 2, residues 9 to 71; numbered along this chain, Q8WXI2 (parent)
chain: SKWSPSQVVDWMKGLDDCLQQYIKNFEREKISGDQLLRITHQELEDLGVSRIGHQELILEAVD

# Variants of: B1
# Assay Explanation: abundance fitness (aPCA) (normalised: wild type 0, dead -1); higher = more abundant; growth selection in yeast, the domain comes from the species named
# Experimental Parameters: Homo sapiens
Collected abundance fitness values appear next to each entry.
Value Type: abundance fitness

>  <Mutant>
C18V

>  <Value Type>
abundance fitness

>  <Test Result>
-0.118

$$$$
>  <Mutant>
I39H

>  <Value Type>
abundance fitness

>  <Test Result>
-0.65

$$$$
>  <Mutant>
K13P

>  <Value Type>
abundance fitness

>  <Test Result>
-0.895

$$$$
>  <Mutant>
G53F

>  <Value Type>
abundance fitness

>  <Test Result>
-0.079

$$$$
>  <Mutant>
L36Q

>  <Value Type>
abundance fitness

>  <Test Result>
-0.898

$$$$
>  <Mutant>
D63Q

>  <Value Type>
abundance fitness

>  <Test Result>
-0.039

$$$$
>  <Mutant>
F26P

>  <Value Type>
abundance fitness

>  <Test Result>
-0.592

$$$$
>  <Mutant>
R38A

>  <Value Type>
abundance fitness

>  <Test Result>
-0.031

$$$$
>  <Mutant>
D46M

>  <Value Type>
abundance fitness

>  <Test Result>
-0.042

$$$$
>  <Mutant>
E43R

>  <Value Type>
abundance fitness

>  <Test Result>
0.006

$$$$
>  <Mutant>
F26M

>  <Value Type>
abundance fitness

>  <Test Result>
-0.709

$$$$
